- System Under Test: Acetylcholinesterase (Homo sapiens, UniProt P22303)
- Sequence (P22303 whole entry): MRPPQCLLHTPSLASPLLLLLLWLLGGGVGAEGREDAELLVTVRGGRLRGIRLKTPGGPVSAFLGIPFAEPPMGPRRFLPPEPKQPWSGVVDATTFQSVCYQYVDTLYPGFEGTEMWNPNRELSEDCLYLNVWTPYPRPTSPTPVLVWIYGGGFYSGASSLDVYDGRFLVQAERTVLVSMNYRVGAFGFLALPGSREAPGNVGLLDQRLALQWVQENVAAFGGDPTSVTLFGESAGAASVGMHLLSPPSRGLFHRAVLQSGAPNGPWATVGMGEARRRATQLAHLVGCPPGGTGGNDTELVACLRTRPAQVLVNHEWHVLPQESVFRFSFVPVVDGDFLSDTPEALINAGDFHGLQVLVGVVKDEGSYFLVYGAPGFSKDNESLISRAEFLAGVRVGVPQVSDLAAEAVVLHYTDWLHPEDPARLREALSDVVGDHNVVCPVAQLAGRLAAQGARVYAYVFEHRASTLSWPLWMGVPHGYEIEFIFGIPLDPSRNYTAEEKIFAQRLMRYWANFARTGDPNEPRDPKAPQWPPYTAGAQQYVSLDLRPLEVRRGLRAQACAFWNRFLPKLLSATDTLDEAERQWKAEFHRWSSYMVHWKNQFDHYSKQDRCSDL
Kindly state pIC50 for each of the entries shown.
Answers are plain numbers, as −log10 of the molar value.

Consider the worked cases shown below.
[[record]]
chem_smiles = "N#Cc1cc2c(cn1)[nH]c1ncc(-c3ccc(CN4CCC(F)CC4)cc3)cc12"
endpoint_value = 6.05

[[record]]
chem_smiles = "N#Cc1cc2c(cn1)[nH]c1ncc(-c3ccc(CN4CCC[C@@H](O)C4)cc3)cc12"
endpoint_value = 6.15


Item: "C[C@@H]1CCC[C@H](C)N1Cc1ccc(-c2cnc3[nH]c4cnc(C#N)cc4c3c2)cc1" | pIC50: 6.87

###

pIC50, Acetylcholinesterase (Homo sapiens, UniProt P22303), per-entry values.
One number for each entry, as −log10 of the molar value.

Consider the worked cases shown below.
[[record]]
chem_smiles = "c1cnc(-c2cc3c(cn2)[nH]c2ncc(-c4ccc(CN5CCCCC5)cc4)cc23)cn1"
endpoint_value = 5.92

[[record]]
chem_smiles = "c1cc(-c2cnc3[nH]c4cnc(-c5cnoc5)cc4c3c2)ccc1CN1CCCCC1"
endpoint_value = 6.18

[[record]]
chem_smiles = "c1cc(-c2cc3c(cn2)[nH]c2ncc(-c4ccc(CN5CCCCC5)cc4)cc23)ccn1"
endpoint_value = 6.11


Now look at this one.
Measured pIC50 (Acetylcholinesterase (Homo sapiens, UniProt P22303)), entry "c1cc(-c2cc3c(cn2)[nH]c2ncc(-c4ccc(CN5CCCCC5)cc4)cc23)cnn1" : 5.98
